protocol_summary: Viability qHTS for spleen associated tyrosine kinase inhibitor (SYKi) naive MV4-11 cells (AID 1963823); note: nearly all actives have a fitted effect of over 40% in size
condition_context: MV4-11 AML viability, CellTiter-Glo luminescence, 72 h; series mostly up to 45 µM
Inconclusive results are not listed. Active and inactive are the calls of the source. Calls come from the whole dose curve; as a rule, active = well fitted cell-killing curve with a large enough effect; inconclusive = small, poorly fitted or top-dose-only effect, or effect the other way; inactive = no such curve, though single readings can be large or run the other way.
Entry note: the call must match one of active, inactive

Query block: For Fc1ccc(C2CCNC[C@H]2COc2ccc3c(c2)OCO3)cc1 (stereo not given in full) , what call appears in the results of this test?
Result block: active

Query block: Cool, now C=C1C(=O)O[C@@H]2[C@H]3C(C)=CC(=O)C3=C(C)[C@@H](OC(=O)/C(C)=C\C)[C@H](O)[C@@H]12
Result block: active

Query block: Cool, now CC(C)c1ccc2c(c1)C(O)CC1C(C)(C(=O)O)CCCC21C (stereo not given)
Result block: inactive

Query block: Cool, now Cc1occc(=O)c1O[C@@H]1O[C@H](CO)[C@@H](O)[C@H](O)[C@H]1O
Result block: inactive

Query block: Cool, now CC(=O)Nc1ccc(OC(=O)c2ccccc2OC(C)=O)cc1
Result block: inactive

Query block: Cool, now CC(C)(OCc1nn(Cc2ccccc2)c2ccccc12)C(=O)O
Result block: inactive

Query block: Cool, now O=C(O)CC(CCc1ccccc1)OC1OC(CO)C(O)C(O)C1O (stereo not given)
Result block: inactive

Query block: Cool, now Cn1c(=O)c2[nH]c(Br)nc2n(C)c1=O
Result block: inactive

Query block: Cool, now COc1cc2[nH]c(=O)[nH]c(=O)c2cc1OC
Result block: inactive

Query block: Cool, now CCc1c(Cl)c(O)c(Cl)c(O)c1C(=O)O[C@H]1[C@H](O)[C@H](OC)[C@H](OC/C2=C\C=C\C[C@H](O)/C(C)=C\[C@H](CC)[C@@H](O[C@@H]3OC(C)(C)[C@@H](OC(=O)C(C)C)[C@H](O)[C@@H]3O)/C(C)=C/C(C)=C/C[C@@H]([C@@H](C)O)OC2=O)O[C@@H]1C
Result block: active

----------
protocol_summary: Quantitative highthroughput screen to assess conditional lethalithy of SEM cells grown in Human Plasma-Like Medium with dialyzed fetal bovine serum (HPLM+ds) (AID 1963882); note: nearly all actives have a fitted effect of over 35% in size
condition_context: SEM B-ALL cells in HPLM+ds, CellTiter-Glo viability, 48 h; series mostly up to 45.8 µM
Records with an inconclusive call do not appear. Activity calls are given as the source filed them. The call rests on the fitted dose curve; in most records, active means well fitted cell-killing curve with a large enough effect; inconclusive means small, poorly fitted or top-dose-only effect, or effect the other way; inactive means no such curve, though single readings can be large or run the other way.
Entry note: the call must match one of 1 (yes) = active, 0 (no) = inactive

Query block: For CC(C)(C)c1cnc(CSc2cnc(NC(=O)C3CCNCC3)s2)o1 , what call appears in the results of this test?
Result block: 1 (yes)

Query block: Cool, now CCN(CC)CCCCNc1ncc2cc(-c3cc(OC)cc(OC)c3)c(NC(=O)NC(C)(C)C)nc2n1
Result block: 1 (yes)

Query block: Cool, now CCCN[C@H]1CCc2nc(N)sc2C1
Result block: 0 (no)

Query block: Cool, now CC(C)[C@H](C(=O)Nc1ccc(C(=O)NO)cc1)c1ccccc1
Result block: 1 (yes)

Query block: Cool, now Cc1ccc([C@@H]2O[C@H](CO)[C@@H](O)[C@H](O)[C@@H]2O)cc1Cc1ccc(-c2ccc(F)cc2)s1
Result block: 0 (no)

Query block: Cool, now Nc1nc(F)nc2c1ncn2[C@@H]1O[C@H](COP(=O)(O)O)[C@@H](O)[C@H]1O
Result block: 1 (yes)

Query block: Cool, now COc1cc(C)c(Sc2cnc(NC(=O)c3ccc(CNC(C)C(C)C)cc3)s2)cc1C(=O)N1CCN(C(C)=O)CC1 (centres undefined)
Result block: 1 (yes)

Query block: Cool, now O=C(c1ccc(F)cc1)N1CCC[C@H](c2nc(-c3ccc(F)cc3)no2)C1
Result block: 0 (no)

Query block: Cool, now CN(c1ncccc1CNc1nc(Nc2ccc3c(c2)CC(=O)N3)ncc1C(F)(F)F)S(C)(=O)=O
Result block: 1 (yes)
